# Ratio Ki values compiled below
assayProtocol: Selectivity ratio of Ki for monocloned delta opioid receptor to Ki for monocloned mu opioid receptor
readoutName: Ratio Ki

chemicalStructure: O=C(N[C@H]1CC[C@@]2(O)[C@H]3Cc4ccc(O)c5c4[C@@]2(CCN3CC2CC2)[C@H]1O5)c1cnc2ccccc2c1
val: 277
--
chemicalStructure: O=C(N[C@H]1CC[C@@]2(O)[C@H]3Cc4ccc(O)c5c4[C@@]2(CCN3CC2CC2)[C@H]1O5)c1cc2ccccc2cn1
val: 241
--
chemicalStructure: COc1cccc2c1[C@]13CCN(CC4CC4)[C@H](C2)[C@]1(OC)CCC(=O)C3
val: 40
--
chemicalStructure: O=C(N[C@H]1CC[C@@]2(O)[C@H]3Cc4ccc(O)c5c4[C@@]2(CCN3CC2CC2)[C@H]1O5)c1ccc2ccccc2n1
val: 693

----------
# Ki values compiled below
system: Mu-type opioid receptor (Homo sapiens)
assayProtocol: Displacement of [3H]naloxone from monocloned mu opioid receptor expressed in CHO cells
Assay type: cell-based

chemicalStructure: O=C(N[C@H]1CC[C@@]2(O)[C@H]3Cc4ccc(O)c5c4[C@@]2(CCN3CC2CC2)[C@H]1O5)c1cnc2ccccc2c1
Ki [nM]: 0.12
//
chemicalStructure: O=C(N[C@H]1CC[C@@]2(O)[C@H]3Cc4ccc(O)c5c4[C@@]2(CCN3CC2CC2)[C@H]1O5)c1ccc2ccccc2n1
Ki [nM]: 0.21
//
chemicalStructure: O=C(N[C@@H]1CC[C@@]2(O)[C@H]3Cc4ccc(O)c5c4[C@@]2(CCN3CC2CC2)[C@H]1O5)c1ccccc1
Ki [nM]: 0.92
//
chemicalStructure: O=C(N[C@@H]1CC[C@@]2(O)[C@H]3Cc4ccc(O)c5c4[C@@]2(CCN3CC2CC2)[C@H]1O5)c1cnc2ccccc2c1
Ki [nM]: 0.07

----------
# Activity values compiled below
system: Mu-type opioid receptor (Homo sapiens, UniProt P35372)
Sequence (P35372 whole entry): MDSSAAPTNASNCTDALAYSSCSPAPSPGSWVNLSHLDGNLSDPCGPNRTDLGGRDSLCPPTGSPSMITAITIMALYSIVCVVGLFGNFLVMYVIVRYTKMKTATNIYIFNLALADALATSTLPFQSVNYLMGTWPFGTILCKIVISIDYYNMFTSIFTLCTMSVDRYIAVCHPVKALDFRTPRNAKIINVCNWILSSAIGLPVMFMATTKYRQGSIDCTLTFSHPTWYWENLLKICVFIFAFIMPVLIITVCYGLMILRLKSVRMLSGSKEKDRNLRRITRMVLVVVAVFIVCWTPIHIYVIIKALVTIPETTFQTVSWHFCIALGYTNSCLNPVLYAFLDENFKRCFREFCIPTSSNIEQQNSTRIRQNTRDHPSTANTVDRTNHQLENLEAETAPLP
assayProtocol: Activity at monocloned mu opioid receptor expressed in CHO cells by [35S]GTPgammaS binding assay relative to DAMGO
Assay type: functional, cell-based

chemicalStructure: O=C(N[C@H]1CC[C@@]2(O)[C@H]3Cc4ccc(O)c5c4[C@@]2(CCN3CC2CC2)[C@H]1O5)c1ccc2ccccc2n1
Activity: 65.4%

chemicalStructure: O=C(N[C@@H]1CC[C@@]2(O)[C@H]3Cc4ccc(O)c5c4[C@@]2(CCN3CC2CC2)[C@H]1O5)c1ccccn1
Activity: 41.1%

chemicalStructure: O=C(N[C@@H]1CC[C@@]2(O)[C@H]3Cc4ccc(O)c5c4[C@@]2(CCN3CC2CC2)[C@H]1O5)c1cnc2ccccc2c1
Activity: 53.4%

chemicalStructure: O=C(N[C@@H]1CC[C@@]2(O)[C@H]3Cc4ccc(O)c5c4[C@@]2(CCN3CC2CC2)[C@H]1O5)c1cc2ccccc2cn1
Activity: 33%

chemicalStructure: O=C(N[C@@H]1CC[C@@]2(O)[C@H]3Cc4ccc(O)c5c4[C@@]2(CCN3CC2CC2)[C@H]1O5)c1ccncc1
Activity: 22.7%

chemicalStructure: O=C(N[C@H]1CC[C@@]2(O)[C@H]3Cc4ccc(O)c5c4[C@@]2(CCN3CC2CC2)[C@H]1O5)c1cccnc1
Activity: 44.8%

chemicalStructure: O=C(N[C@H]1CC[C@@]2(O)[C@H]3Cc4ccc(O)c5c4[C@@]2(CCN3CC2CC2)[C@H]1O5)c1cnc2ccccc2c1
Activity: 44.8%

chemicalStructure: O=C(N[C@H]1CC[C@@]2(O)[C@H]3Cc4ccc(O)c5c4[C@@]2(CCN3CC2CC2)[C@H]1O5)c1ccccn1
Activity: 37.8%
